# ASSAY_TARGET: T1, monkey (macaca fascicularis) PRLR on HEK293 cells (macaca fascicularis, UniProt A0A2K5WXK1 25-619)
# T1 construct: also called mfPRLR; HEK293/mfPRLR
# T1 sequence: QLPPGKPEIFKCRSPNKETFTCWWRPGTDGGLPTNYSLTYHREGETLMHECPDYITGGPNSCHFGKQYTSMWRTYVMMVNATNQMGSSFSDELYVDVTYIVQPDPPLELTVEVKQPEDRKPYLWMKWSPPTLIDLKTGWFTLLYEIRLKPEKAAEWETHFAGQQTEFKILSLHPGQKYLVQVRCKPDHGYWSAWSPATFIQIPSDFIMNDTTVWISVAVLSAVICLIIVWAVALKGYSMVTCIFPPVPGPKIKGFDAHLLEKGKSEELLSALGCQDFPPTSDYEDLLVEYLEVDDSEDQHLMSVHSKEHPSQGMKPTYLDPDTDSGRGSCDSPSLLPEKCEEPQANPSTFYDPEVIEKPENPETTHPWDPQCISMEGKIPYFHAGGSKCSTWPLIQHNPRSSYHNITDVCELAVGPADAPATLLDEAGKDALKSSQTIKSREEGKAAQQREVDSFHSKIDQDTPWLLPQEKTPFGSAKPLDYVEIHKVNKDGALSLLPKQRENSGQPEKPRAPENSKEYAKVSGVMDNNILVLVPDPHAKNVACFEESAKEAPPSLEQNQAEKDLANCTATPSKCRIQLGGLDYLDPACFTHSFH
# ASSAY_DETAILS: FACS, HEK293/mfPRLR cells; note: test concentration or dose not given here
Below, each entry is listed with its recorded FACS Cell Binding (Fold Above Background).
Number only, in fold above background; omit the unit.

H1H6785P (antibody, human IgG1, V domains shown, human IgG1 Fc (H1H)) VH: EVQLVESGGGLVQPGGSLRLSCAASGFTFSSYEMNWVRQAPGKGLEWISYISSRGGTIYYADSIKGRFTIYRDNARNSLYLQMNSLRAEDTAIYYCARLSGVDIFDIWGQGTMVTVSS VL: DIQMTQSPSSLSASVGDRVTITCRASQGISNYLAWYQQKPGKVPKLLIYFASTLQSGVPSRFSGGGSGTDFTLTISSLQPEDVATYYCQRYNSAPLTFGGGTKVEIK = 26
H1H6801P (antibody, human IgG1, V domains shown, human IgG1 Fc (H1H)) VH: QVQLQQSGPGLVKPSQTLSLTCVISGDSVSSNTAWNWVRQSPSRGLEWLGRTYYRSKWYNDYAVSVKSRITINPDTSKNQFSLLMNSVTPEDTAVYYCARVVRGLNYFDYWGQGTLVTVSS VL: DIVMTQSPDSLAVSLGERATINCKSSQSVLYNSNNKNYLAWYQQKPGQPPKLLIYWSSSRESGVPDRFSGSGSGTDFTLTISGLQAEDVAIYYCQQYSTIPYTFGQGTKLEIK = 88
H1H6762P (antibody, human IgG1, V domains shown, human IgG1 Fc (H1H)) VH: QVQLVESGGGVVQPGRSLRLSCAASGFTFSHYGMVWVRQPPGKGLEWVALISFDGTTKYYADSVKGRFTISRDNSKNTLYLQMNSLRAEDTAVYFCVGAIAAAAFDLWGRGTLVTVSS VL: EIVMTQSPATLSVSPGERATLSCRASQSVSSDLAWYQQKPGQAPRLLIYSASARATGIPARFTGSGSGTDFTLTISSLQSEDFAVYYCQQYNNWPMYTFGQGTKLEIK = 26
H1H6793P (antibody, human IgG1, V domains shown, human IgG1 Fc (H1H)) VH: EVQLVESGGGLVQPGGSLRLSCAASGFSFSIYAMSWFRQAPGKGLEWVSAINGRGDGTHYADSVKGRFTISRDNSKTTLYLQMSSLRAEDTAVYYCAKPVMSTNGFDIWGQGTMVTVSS VL: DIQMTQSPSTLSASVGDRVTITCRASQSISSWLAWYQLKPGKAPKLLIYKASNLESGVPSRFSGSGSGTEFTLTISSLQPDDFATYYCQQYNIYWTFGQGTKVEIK = 32
H1H6804P (antibody, human IgG1, V domains shown, human IgG1 Fc (H1H)) VH: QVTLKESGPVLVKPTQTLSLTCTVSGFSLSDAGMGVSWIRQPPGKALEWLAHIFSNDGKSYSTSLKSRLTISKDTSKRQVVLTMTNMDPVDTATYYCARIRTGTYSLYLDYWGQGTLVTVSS VL: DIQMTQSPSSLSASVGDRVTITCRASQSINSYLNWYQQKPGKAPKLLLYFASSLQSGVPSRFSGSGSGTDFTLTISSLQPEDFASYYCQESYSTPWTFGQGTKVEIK = 29
H1H6803P (antibody, human IgG1, V domains shown, human IgG1 Fc (H1H)) VH: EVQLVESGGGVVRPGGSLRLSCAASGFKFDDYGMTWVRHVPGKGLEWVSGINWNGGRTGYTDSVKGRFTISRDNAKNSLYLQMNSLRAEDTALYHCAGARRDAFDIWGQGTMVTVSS VL: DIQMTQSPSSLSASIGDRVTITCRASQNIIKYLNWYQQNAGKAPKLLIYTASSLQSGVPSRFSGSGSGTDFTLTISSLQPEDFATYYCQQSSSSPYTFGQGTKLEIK = 28
H1H6790P (antibody, human IgG1, V domains shown, human IgG1 Fc (H1H)) VH: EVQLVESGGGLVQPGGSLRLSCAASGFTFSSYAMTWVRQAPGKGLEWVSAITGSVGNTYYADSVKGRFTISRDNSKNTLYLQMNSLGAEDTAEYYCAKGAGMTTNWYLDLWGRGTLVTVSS VL: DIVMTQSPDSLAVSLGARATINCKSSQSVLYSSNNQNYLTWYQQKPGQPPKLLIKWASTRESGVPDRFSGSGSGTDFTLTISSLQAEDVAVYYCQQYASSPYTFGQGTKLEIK = 24
H1H6795P (antibody, human IgG1, V domains shown, human IgG1 Fc (H1H)) VH: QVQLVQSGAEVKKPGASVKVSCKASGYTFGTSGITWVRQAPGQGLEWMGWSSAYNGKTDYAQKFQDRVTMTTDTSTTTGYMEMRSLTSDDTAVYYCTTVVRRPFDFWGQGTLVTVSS VL: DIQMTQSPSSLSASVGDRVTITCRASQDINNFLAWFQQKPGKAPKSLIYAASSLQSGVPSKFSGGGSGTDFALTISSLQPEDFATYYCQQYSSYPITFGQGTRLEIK = 22

Inquiry: Which value of FACS Cell Binding (Fold Above Background) has been reported for H1H6781P (antibody, human IgG1, V domains shown, human IgG1 Fc (H1H)) VH: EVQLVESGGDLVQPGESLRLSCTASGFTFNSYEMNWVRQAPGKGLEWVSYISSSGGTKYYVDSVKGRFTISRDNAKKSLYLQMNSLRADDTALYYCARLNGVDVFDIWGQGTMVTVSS VL: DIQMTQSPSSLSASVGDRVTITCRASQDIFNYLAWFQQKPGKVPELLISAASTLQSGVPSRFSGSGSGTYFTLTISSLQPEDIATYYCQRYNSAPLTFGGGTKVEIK in the records?
Reply text: 26

Inquiry: Which value of FACS Cell Binding (Fold Above Background) has been reported for H1H6800P (antibody, human IgG1, V domains shown, human IgG1 Fc (H1H)) VH: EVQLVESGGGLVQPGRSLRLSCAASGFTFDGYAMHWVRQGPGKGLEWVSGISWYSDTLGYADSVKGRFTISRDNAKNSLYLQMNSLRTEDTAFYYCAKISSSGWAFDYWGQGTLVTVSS VL: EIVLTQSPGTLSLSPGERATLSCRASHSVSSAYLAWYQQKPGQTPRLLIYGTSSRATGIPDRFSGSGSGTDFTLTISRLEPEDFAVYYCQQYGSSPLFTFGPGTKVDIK in the records?
Reply text: 29

Values compiled from patent US20150056222A1.
